- experiment.description: Neurotoxicity in ip dosed albino Carworth Farms No.1 mouse after 0.25 hrs by rotarod test
- Format: toxicity, organism-based
- recorded.conditions: in vivo
Parameter: TD50 at 0.25 h. Scope: all listed entries.
Give the quantity in mg/kg, number only.

# example entries with known answers
molecule="CC(C)C(CO)NC(=O)/C=C/c1ccccc1 (racemic)" units=mg/kg val=190
molecule="CC(O)CNC(=O)/C=C/c1ccccc1 (racemic)" units=mg/kg val=136

Consider now this further molecule.
Ask | Reported TD50 at 0.25 h, molecule CC(CO)NC(=O)/C=C/c1ccccc1 (racemic) : ____
Reply | 223

----------
Parameter: Activity_index. Scope: all listed entries.
- Test system: Salmonella typhimurium
- experiment.description: Mutagenicity in Salmonella typhimurium TA1535 assessed as assessed as mutagenic index at 500 ug/plate by Ames test
- Format: toxicity, organism-based
- recorded.conditions: salmonella enterica subsp. enterica serovar typhimurium
Please state the value as a number alone, without comment.

# example entries with known answers
molecule="CCC(O)CNC(=O)/C=C/c1ccccc1 (racemic)" target_under_test="Salmonella typhimurium" val=0.7
molecule="CC(CO)NC(=O)/C=C/c1ccccc1 (racemic)" target_under_test="Salmonella typhimurium" val=0.8
molecule="CC(O)CNC(=O)/C=C/c1ccccc1 (racemic)" target_under_test="Salmonella typhimurium" val=1.4
molecule="CC(C)C(CO)NC(=O)/C=C/c1ccccc1 (racemic)" target_under_test="Salmonella typhimurium" val=0.7
molecule="O=C(/C=C/c1ccccc1)N[C@H]1CCCC[C@@H]1O (racemic)" target_under_test="Salmonella typhimurium" val=0.7
molecule=O=C(/C=C/c1ccccc1)N1CCC(O)CC1 target_under_test="Salmonella typhimurium" val=0.8

Ask | Reported Activity_index, molecule CCC(CO)NC(=O)/C=C/c1ccccc1 (racemic) : ____
Reply | 1.3
